# ASSAYED_SYSTEM: T1, recombinant human IL-27 (human, UniProt Q14213 21-229; Q8NEV9 29-243)
# T1 construct: Bought from R&D Systems (Cat. 2526-IL); also called hIL-27; rhIL-27
# T1 sequence 1: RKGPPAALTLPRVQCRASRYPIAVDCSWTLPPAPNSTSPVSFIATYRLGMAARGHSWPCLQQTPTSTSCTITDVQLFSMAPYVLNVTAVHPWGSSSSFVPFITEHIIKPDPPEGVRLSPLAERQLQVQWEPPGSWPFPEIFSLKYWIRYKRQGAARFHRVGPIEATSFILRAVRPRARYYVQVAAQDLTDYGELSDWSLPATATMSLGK
# T1 sequence 2: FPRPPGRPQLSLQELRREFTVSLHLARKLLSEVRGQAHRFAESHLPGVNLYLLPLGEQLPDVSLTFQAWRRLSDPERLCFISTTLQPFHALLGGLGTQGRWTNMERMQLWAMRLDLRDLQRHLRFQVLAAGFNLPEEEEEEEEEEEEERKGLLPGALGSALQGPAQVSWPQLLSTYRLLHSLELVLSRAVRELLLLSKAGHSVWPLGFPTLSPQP
# TEST_METHOD_NOTES: SPR, hIL-27 on CM5 chip, bivalent analyte model (ka1)
PROPERTY_NAME: kon (M⁻¹ s⁻¹)
Answers are plain numbers, in M⁻¹ s⁻¹.

Lookup result for Ab7.18 (antibody, human IgG1, kappa, V domains shown, human IgG1/kappa) VH: EVQLVESGGGLVQPGGSLRLSCAASGFTFTSYSMSWVRQAPGKGLEWVAYISYDGGSAYYPDTVKGRFTISRDNSKNTLYLQMNSLRAEDTAVYYCARHGDYDDDDAMDYWGQGTLVTVSS VL: DIQMTQSPSSLSASVGDRVTITCRASENIYSYLAWYQQKPGKAPKLLVYNAETLTEGVPSRFSGSGSGTDFTLTISSLQPEDFATYYCQHHYGTPLTFGQGTKLEIKR ; measured kon: 570000

Value of kon reported for the binder Ab7.20 (antibody, human IgG1, kappa, V domains shown, human IgG1/kappa) VH: EVQLVESGGGLVQPGGSLRLSCAASGFTFTSYSMSWVRQAPGKGLEWVSYISYDGGSAYYPDTVKGRFTISRDNSKNTLYLQMNSLRAEDTAVYYCARHGDYDDDDAMDYWGQGTLVTVSS VL: DIQMTQSPSSLSASVGDRVTITCRASENIYSYLAWYQQKQGKAPKLLVYNAETLTEGVPSRFSGSGSGTDFTLTISSLQPEDFANYYCQHHYGTPLTFGQGTKLDIKR is 620000

Quick note, kon for Ab7.3 (antibody, human IgG1, kappa, V domains shown, human IgG1/kappa) VH: EVKLVESGGGLVQPGGSLRLSCAASGFTFTSYSMSWVRQAPGKGLEWVAYISYDGGSAYYPDTVKGRFTISRDNSKKTLYLQMSSLKSEDTAMYYCARHGDYDDDDAMDYWGQGTSVTVSS VL: DIQMTQSPASLSASVGETVTITCRASENIYSYLAWYQQKQGKSPQLLVYNAETLTEGVPSRFSGSGSGTQFSLKINSLQPEDFGNYYCQHHYGTPLTFGAGTKLDLKR landed at 750000

Form: binder = Ab7.22 (antibody, human IgG1, kappa, V domains shown, human IgG1/kappa) VH: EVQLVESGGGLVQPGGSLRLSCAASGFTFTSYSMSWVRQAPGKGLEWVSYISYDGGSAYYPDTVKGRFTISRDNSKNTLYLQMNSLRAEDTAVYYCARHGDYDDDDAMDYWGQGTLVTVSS VL: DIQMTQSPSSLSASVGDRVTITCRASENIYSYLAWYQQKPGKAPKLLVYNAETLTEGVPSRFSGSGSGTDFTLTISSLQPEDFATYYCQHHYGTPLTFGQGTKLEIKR ; kon = 580000

The measured kon associated with Ab7.5 (antibody, human IgG1, kappa, V domains shown, human IgG1/kappa) VH: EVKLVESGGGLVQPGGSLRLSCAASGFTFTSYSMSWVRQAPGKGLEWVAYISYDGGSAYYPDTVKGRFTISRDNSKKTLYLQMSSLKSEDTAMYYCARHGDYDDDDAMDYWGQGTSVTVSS VL: DIQMTQSPSSLSASVGDRVTITCRASENIYSYLAWYQQKPGKAPKLLVYNAETLTEGVPSRFSGSGSGTDFTLTISSLQPEDFANYYCQHHYGTPLTFGQGTKLEIKR reads 680000

In plain terms, Ab7.21 (antibody, human IgG1, kappa, V domains shown, human IgG1/kappa) VH: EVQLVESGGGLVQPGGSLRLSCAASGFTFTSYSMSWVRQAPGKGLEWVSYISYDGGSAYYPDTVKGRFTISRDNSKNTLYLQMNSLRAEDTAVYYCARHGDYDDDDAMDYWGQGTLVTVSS VL: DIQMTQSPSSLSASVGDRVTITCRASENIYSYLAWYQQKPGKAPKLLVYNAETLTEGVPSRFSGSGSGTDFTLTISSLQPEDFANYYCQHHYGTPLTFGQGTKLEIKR has a documented kon of 550000

Next:
Briefly, kon measured for Ab7.17 (antibody, human IgG1, kappa, V domains shown, human IgG1/kappa) VH: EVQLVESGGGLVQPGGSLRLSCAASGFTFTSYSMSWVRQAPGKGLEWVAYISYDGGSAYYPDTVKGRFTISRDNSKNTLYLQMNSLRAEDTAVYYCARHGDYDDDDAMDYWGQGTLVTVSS VL: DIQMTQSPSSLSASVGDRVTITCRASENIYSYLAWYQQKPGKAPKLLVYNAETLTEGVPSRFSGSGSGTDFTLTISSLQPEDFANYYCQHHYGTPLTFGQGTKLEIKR : 580000
